experiment: ADME study of [14C]eplerenone oral solution: plasma, whole blood, saliva pharmacokinetics; type: in vivo, humans; conditions: male, human, plasma; 100 mg oral solution of [14C]eplerenone; 1.0 hours after dosing
endpoint: concentration at 1 h (ng/mL)

> print(dat)
                                   molecule  test.value
1  COC(=O)C1CC2=CC(=O)CCC2(C)C23OC2CC2(C)C(CC[C@@]24CCC(=O)O4)C13 (stereo partly shown)        1620

---

test: Single dose study: plasma pharmacokinetics of eplerenone, open lactone ring form, spironolactone; conditions: male, human, plasma, po, 50 mg
Quick list: concentration at 6 h per entry.

compound	uom	concentration at 6 h
COC(=O)C1CC2=CC(=O)CCC2(C)C23OC2CC2(C)C(CC[C@@]24CCC(=O)O4)C13 (some centres unmarked) [eplerenone]	ng/mL	270
CC(=O)S[C@@H]1CC2=CC(=O)CC[C@]2(C)[C@H]2CC[C@@]3(C)[C@@H](CC[C@@]34CCC(=O)O4)[C@H]12 [spironolactone, Spironolactone, reference compound]	ng/mL	0

---

assay: Multiple dose study: plasma pharmacokinetics and urinary excretion; assay type: in vivo, humans; conditions: male, human, plasma, oral, 100 mg, eplerenone 100 mg Dose; Multiple Dose
endpoint: AUC (ng·h/mL)

> print(dat)
                                   compound  endpoint  test.value
1  COC(=O)C1CC2=CC(=O)CCC2(C)C23OC2CC2(C)C(CC[C@@]24CCC(=O)O4)C13 (stereo partly shown)       AUC       11800

---

assay: Effect of food study: plasma pharmacokinetics fasted vs high-fat breakfast; type: in vivo, humans; conditions: male, human, plasma, oral, 100 mg, 100 mg eplerenone capsule; Fasted Conditions; 4.0 hours after dosing
endpoint: concentration at 4 h

> print(dat)
                                   compound  test.value
1  COC(=O)C1CC2=CC(=O)CCC2(C)C23OC2CC2(C)C(CC[C@@]24CCC(=O)O4)C13 (stereo partly shown) [eplerenone]   955 ng/mL

---

assay: Single dose study: plasma pharmacokinetics of eplerenone, open lactone ring form, spironolactone; settings: male, human, plasma, po, 50 mg

compound	concentration at 24 h, ng/mL
COC(=O)C1CC2=CC(=O)CCC2(C)C23OC2CC2(C)C(CC[C@@]24CCC(=O)O4)C13 (some centres unmarked) [eplerenone]	3
CC(=O)S[C@@H]1CC2=CC(=O)CC[C@]2(C)[C@H]2CC[C@@]3(C)[C@@H](CC[C@@]34CCC(=O)O4)[C@H]12 [spironolactone, Spironolactone, reference compound]	0

---

experiment: Single dose study: plasma pharmacokinetics of eplerenone, open lactone ring form, spironolactone; details: male, human, plasma, po, 100 mg
endpoint: concentration at 72 h (ng/mL)

> print(dat)
                                   molecule  test.value
1  COC(=O)C1CC2=CC(=O)CCC2(C)C23OC2CC2(C)C(CC[C@@]24CCC(=O)O4)C13 (stereo partly shown)           0

---

experiment: Single dose study: plasma pharmacokinetics of eplerenone, open lactone ring form, spironolactone; details: male, human, plasma, po, 10 mg
endpoint: concentration at 28 h (µg/mL)

> print(dat)
                                   compound               endpoint  test.value
1  COC(=O)C1CC2=CC(=O)CCC2(C)C23OC2CC2(C)C(CC[C@@]24CCC(=O)O4)C13 (stereo partly shown)  concentration at 28 h           0

---

experiment: ADME study of [14C]eplerenone oral solution: plasma, whole blood, saliva pharmacokinetics; format: in vivo, humans; details: male, human; plasma; 100 mg eplerenone oral solution, single dose
endpoint: half-life (h)

> print(dat)
                                   compound  test.value
1  COC(=O)C1CC2=CC(=O)CCC2(C)C23OC2CC2(C)C(CC[C@@]24CCC(=O)O4)C13 (stereo partly shown) [eplerenone]         3.8

---

assay: ADME study of [14C]eplerenone oral solution: plasma, whole blood, saliva pharmacokinetics; format: in vivo, humans; details: male, human; plasma; 100 mg eplerenone oral solution, single dose; read-out: AUC(0-96)
endpoint: AUC(0-t) (ng·h/mL)

> print(dat)
                                   molecule      uom  test.value
1  COC(=O)C1CC2=CC(=O)CCC2(C)C23OC2CC2(C)C(CC[C@@]24CCC(=O)O4)C13 (stereo partly shown)  ng·h/mL        9540

---

assay: Single dose study: plasma pharmacokinetics of eplerenone, open lactone ring form, spironolactone; settings: male, human, plasma, po, 100 mg
endpoint: concentration at 2 h (ng/mL)

> print(dat)
                                   compound  test.value
1  COC(=O)C1CC2=CC(=O)CCC2(C)C23OC2CC2(C)C(CC[C@@]24CCC(=O)O4)C13 (stereo partly shown)        1360

---

test: Effect of food study: plasma pharmacokinetics fasted vs high-fat breakfast; assay type: in vivo, humans; conditions: male, human, plasma, oral, 100 mg, 100 mg eplerenone capsule; High Fat Breakfast; […] after dosing
endpoint: concentration at 16 h

> print(dat)
                                   compound  test.value
1  COC(=O)C1CC2=CC(=O)CCC2(C)C23OC2CC2(C)C(CC[C@@]24CCC(=O)O4)C13 (stereo partly shown)   130 ng/mL

---

experiment: Effect of food study: plasma pharmacokinetics fasted vs high-fat breakfast; assay type: in vivo, humans; conditions: male, human, plasma, oral, 100 mg, 100 mg eplerenone capsule; High Fat Breakfast; […] after dosing
endpoint: concentration at 12 h (ng/mL)

> print(dat)
                                   compound               endpoint  test.value
1  COC(=O)C1CC2=CC(=O)CCC2(C)C23OC2CC2(C)C(CC[C@@]24CCC(=O)O4)C13 (stereo partly shown)  concentration at 12 h         282

---

assay: Single dose study: plasma pharmacokinetics of eplerenone, open lactone ring form, spironolactone; details: male, human, plasma, po, 100 mg
endpoint: half-life (h)

> print(dat)
                                   molecule  test.value
1  COC(=O)C1CC2=CC(=O)CCC2(C)C23OC2CC2(C)C(CC[C@@]24CCC(=O)O4)C13 (stereo partly shown)         4.9

---

Assay: Single dose study: plasma pharmacokinetics of eplerenone, open lactone ring form, spironolactone
Settings: male, human, plasma, po, 10 mg
Description: The pharmacokinetics, safety and antialdosterone activity of single 10, 50, 100, 300 and 1000 mg oral doses of eplerenone were evaluated in a single-center, randomized, double-blind, placebo-controlled study. The study employed seven parallel dose groups of eight healthy male humans. The eplerenone capsules administered corresponded to the capsules (or combinations of the capsules) disclosed in Examples 4, 5, 7 and 8 above. The placebo was a conventional capsule containing lactose. […]
endpoint: MRT (h)

> print(dat)
                                   molecule  uom  test.value
1  COC(=O)C1CC2=CC(=O)CCC2(C)C23OC2CC2(C)C(CC[C@@]24CCC(=O)O4)C13 (stereo partly shown) [eplerenone]    h         3.9

---

experiment: Single dose study: plasma pharmacokinetics of eplerenone, open lactone ring form, spironolactone; details: male, human, plasma, po, 1000 mg
endpoint: concentration at 3 h (ng/mL)

> print(dat)
                                   compound  test.value
1  COC(=O)C1CC2=CC(=O)CCC2(C)C23OC2CC2(C)C(CC[C@@]24CCC(=O)O4)C13 (stereo partly shown)        6810

---

assay: Single dose study: plasma pharmacokinetics of eplerenone, open lactone ring form, spironolactone; conditions: male, human, plasma, po, 10 mg
endpoint: concentration at 8 h (ng/mL)

> print(dat)
                                   compound  test.value
1  COC(=O)C1CC2=CC(=O)CCC2(C)C23OC2CC2(C)C(CC[C@@]24CCC(=O)O4)C13 (stereo partly shown) [eplerenone]        34.4

---

Test: ADME study of [14C]eplerenone oral solution: plasma, whole blood, saliva pharmacokinetics
Format: in vivo, humans
Settings: male, human, plasma; 100 mg oral solution of [14C]eplerenone; 24.0 hours after dosing
Description: An open-label, single dose study was employed to evaluate the absorption, distribution, metabolism and elimination profile of a single 100 mg dose of an oral solution of eplerenone. The study employed eight healthy male humans. […] Plasma, saliva, breath, urine and fecal samples were collected at predetermined intervals and analyzed for sample radioactivity and the concentration of eplerenone and its open lactone ring form. […]
endpoint: concentration at 24 h (ng/mL)

> print(dat)
                                   compound  test.value
1  COC(=O)C1CC2=CC(=O)CCC2(C)C23OC2CC2(C)C(CC[C@@]24CCC(=O)O4)C13 (stereo partly shown)        17.3
